test system: Escherichia coli; experiment: Antibacterial activity against Escherichia coli MTCC 1089 assessed as growth inhibition after 18 hr by broth microdilution method; format: functional; details: MTCC 1089, 18 h

MOLECULE_SMILES	QUALIFIER_OPERATOR	MIC, µg/mL
Cc1ccc(C(=O)CSc2nnc(N3CCN(c4cc5c(cc4F)c(=O)c(C(=O)O)cn5C4CC4)CC3)s2)cc1	=	16
CCn1cc(C(=O)O)c(=O)c2cc(F)c(N3CCN(c4nnc(SCC(=O)c5ccc(F)cc5)s4)CC3)cc21	>	64
CCn1cc(C(=O)O)c(=O)c2cc(F)c(N3CCN(c4nnc(SCC(=O)c5ccc(Br)cc5)s4)CC3)cc21	=	32
O=C(CSc1nnc(N2CCN(c3cc4c(cc3F)c(=O)c(C(=O)O)cn4C3CC3)CC2)s1)c1ccc([N+](=O)[O-])cc1	=	32

###

test system: Mycobacterium tuberculosis; test: Antimycobacterial activity against Mycobacterium tuberculosis H37Rv assessed as growth inhibition after 21 days by broth dilution assay; format: functional; conditions: 504 h
# Lookup of reported MIC keyed by entry

MOLECULE_SMILES	READING_UNIT	MIC
CCn1cc(C(=O)O)c(=O)c2cc(F)c(N3CCN(c4nnc(SCC(=O)c5ccc(F)cc5)s4)CC3)cc21	µg/mL	5
CCn1cc(C(=O)O)c(=O)c2cc(F)c(N3CCN(c4nnc(SCC(=O)c5ccc([N+](=O)[O-])cc5)s4)CC3)cc21	µg/mL	1
COc1ccc(C(=O)CSc2nnc(N3CCN(c4cc5c(cc4F)c(=O)c(C(=O)O)cn5C4CC4)CC3)s2)cc1	µg/mL	10
O=C(CSc1nnc(N2CCN(c3cc4c(cc3F)c(=O)c(C(=O)O)cn4C3CC3)CC2)s1)c1ccc(Br)cc1	µg/mL	2
CO[C@H]1/C=C/O[C@@]2(C)Oc3c(C)c(O)c4c(O)c(c(/C=N/N5CCN(C)CC5)c(O)c4c3C2=O)NC(=O)/C(C)=C\C=C\[C@H](C)[C@H](O)[C@@H](C)[C@@H](O)[C@@H](C)[C@H](OC(C)=O)[C@@H]1C	µg/mL	1
O=C(CSc1nnc(N2CCN(c3cc4c(cc3F)c(=O)c(C(=O)O)cn4C3CC3)CC2)s1)c1ccc([N+](=O)[O-])cc1	µg/mL	0.5
CCn1cc(C(=O)O)c(=O)c2cc(F)c(N3CCN(c4nnc(SCC(=O)c5ccc(Br)cc5)s4)CC3)cc21	µg/mL	2.5
CCn1cc(C(=O)O)c(=O)c2cc(F)c(N3CCN(c4nnc(SCC(=O)c5ccc(Cl)cc5)s4)CC3)cc21	µg/mL	1.5
CCn1cc(C(=O)O)c(=O)c2cc(F)c(N3CCN(c4nnc(SCC(=O)c5ccc(OC)cc5)s4)CC3)cc21	µg/mL	10
NNC(=O)c1ccncc1	µg/mL	1.5
O=C(CSc1nnc(N2CCN(c3cc4c(cc3F)c(=O)c(C(=O)O)cn4C3CC3)CC2)s1)c1ccc(F)cc1	µg/mL	5
O=C(CSc1nnc(N2CCN(c3cc4c(cc3F)c(=O)c(C(=O)O)cn4C3CC3)CC2)s1)c1ccc(Cl)cc1	µg/mL	1

###

assay: Selectivity index, ratio of IC50 for african green monkey Vero cells to MIC for Mycobacterium tuberculosis H37Rv; format: toxicity, cell-based; settings: read-out: Selectivity Index
Reported values of selectivity ratio for individual entries

MOLECULE_SMILES	QUALIFIER_OPERATOR	selectivity ratio
CCn1cc(C(=O)O)c(=O)c2cc(F)c(N3CCN(c4nnc(SCC(=O)c5ccc(Cl)cc5)s4)CC3)cc21	=	2.67
O=C(CSc1nnc(N2CCN(c3cc4c(cc3F)c(=O)c(C(=O)O)cn4C3CC3)CC2)s1)c1ccc(Cl)cc1	=	3
CO[C@H]1/C=C/O[C@@]2(C)Oc3c(C)c(O)c4c(O)c(c(/C=N/N5CCN(C)CC5)c(O)c4c3C2=O)NC(=O)/C(C)=C\C=C\[C@H](C)[C@H](O)[C@@H](C)[C@@H](O)[C@@H](C)[C@H](OC(C)=O)[C@@H]1C	>	10
O=C(CSc1nnc(N2CCN(c3cc4c(cc3F)c(=O)c(C(=O)O)cn4C3CC3)CC2)s1)c1ccc(Br)cc1	=	3
